Entries and their measured selectivity ratio follow.
Assay: in vitro
Details: human, A431 cells
Description: Selectivity index, ratio of ED50 for human A431 cells to ED50 for chloroquine-resistant Plasmodium falciparum W2
// keep it numeric: no unit symbol after the value

Take a look at these entries with their results.
{"compound": "COc1ccc2cc1Oc1ccc(cc1)C[C@H]1c3c(cc(OC)c(O)c3Oc3cc4c(cc3OC)CCN(C)[C@@H]4C2)CCN1C", "selectivity ratio": 31}
{"compound": "COc1ccc2cc1Oc1ccc(cc1)C[C@H]1c3cc(c(OC)cc3CCN1C)Oc1c(O)c(OC)cc3c1[C@@H](C2)N(C)CC3", "selectivity ratio": 21}
{"compound": "COc1ccc2cc1Oc1ccc(cc1)C[C@H]1c3cc(c(OC)cc3CCN1C)Oc1c(OC)c(OC)cc3c1[C@@H](C2)NCC3", "selectivity ratio": 104}
{"compound": "COc1ccc2cc1Oc1ccc(cc1)C[C@H]1c3c(cc4c(c3Oc3cc5c(cc3OC)CCN[C@@H]5C2)OCO4)CCN1C", "selectivity ratio": 14}
{"compound": "COc1ccc2cc1Oc1ccc(cc1)C[C@H]1c3c(cc(OC)c(OC)c3Oc3cc4c(cc3OC)CCN(C)[C@@H]4C2)CCN1C", "selectivity ratio": 40}
{"compound": "OC(c1cc(C(F)(F)F)nc2c(C(F)(F)F)cccc12)C1CCCCN1 (configuration not stated)", "selectivity ratio": 2500}

Please examine the following record next.
Ask | For the compound COc1ccc2cc1Oc1ccc(cc1)C[C@H]1c3c(cc(OC)c4c3Oc3cc5c(cc3O4)CCN=C5C2)CCN1C , give its measured selectivity ratio value.
Reply | 23

* * *

Assay: in vitro
Conditions: mouse, P388 cells
Description: Selectivity index, ratio of ED50 for mice (Mus musculus) P388 cells to ED50 for chloroquine-sensitive Plasmodium falciparum D6
Lab note: anything with selectivity ratio at or over 30 counts as Met; the rest go in Not met.

{"compound": "COc1ccc2cc1Oc1ccc(cc1)C[C@H]1c3cc(c(OC)cc3CCN1C)Oc1c(OC)c(OC)cc3c1[C@@H](C2)NCC3", "assigned.category": "Met"}
{"compound": "COc1ccc2cc1Oc1ccc(cc1)C[C@H]1c3cc(c(OC)cc3CCN1C)Oc1c(O)c(OC)cc3c1[C@@H](C2)N(C)CC3", "assigned.category": "Met"}

Ask | Given COc1ccc2cc1Oc1ccc(cc1)C[C@H]1c3cc(c(OC)cc3CCN1C)Oc1c(OC)c(OC)cc3c1[C@@H](C2)N(C)CC3 , state whether its selectivity ratio is at least 30.
Reply | Met

* * *

Quick reference for selectivity ratio among some compounds
Experiment: Selectivity index, ratio of ED50 for human KB-V1 cells to ED50 for chloroquine-resistant Plasmodium falciparum W2
Type: toxicity, cell-based
Settings: read-out: Ratio ED50
Form field (numeric): enter value without unit.

{"compound": "COc1ccc2cc1Oc1ccc(cc1)C[C@H]1c3c(cc(OC)c(OC)c3Oc3cc4c(cc3OC)CCN(C)[C@@H]4C2)CCN1C [OBABERINE]", "parameter": "selectivity ratio", "data.value": 12}
{"compound": "COc1ccc2cc1Oc1ccc(cc1)C[C@H]1c3c(cc(OC)c(O)c3Oc3cc4c(cc3OC)CCN[C@@H]4C2)CCN1C", "parameter": "selectivity ratio", "data.value": 10}
{"compound": "C=C[C@H]1CN2CC[C@H]1C[C@H]2[C@H](O)c1ccnc2ccc(OC)cc12 [QUININE]", "parameter": "selectivity ratio", "data.value": 182}
{"compound": "OC(c1cc(C(F)(F)F)nc2c(C(F)(F)F)cccc12)C1CCCCN1 (configuration not stated) [MEFLOQUINE]", "parameter": "selectivity ratio", "data.value": 917}
{"compound": "COc1ccc2cc1Oc1ccc(cc1)C[C@H]1c3cc(c(OC)cc3CCN1C)Oc1c(OC)c(OC)cc3c1[C@@H](C2)N(C)CC3", "parameter": "selectivity ratio", "data.value": 28}
{"compound": "COc1ccc2cc1Oc1ccc(cc1)C[C@H]1c3c(cc4c(c3Oc3cc5c(cc3OC)CCN[C@@H]5C2)OCO4)CCN1C", "parameter": "selectivity ratio", "data.value": 11}

Kindly review the next compound as well.
Ask | Item COc1ccc2cc1Oc1ccc(cc1)C[C@H]1c3cc(c(OC)cc3CCN1C)Oc1c(O)c(OC)cc3c1[C@@H](C2)N(C)CC3 : provide selectivity ratio
Reply | 16

* * *

Experiment: in vitro
Conditions: human, A431 cells
Description: Selectivity index, ratio of ED50 for human A431 cells to ED50 for chloroquine-sensitive Plasmodium falciparum D6
# MET = selectivity ratio below 20 (exclusive); NOT MET = selectivity ratio at/above 20

Before answering, review these 4 worked examples.
{"compound": "COc1ccc2cc1Oc1ccc(cc1)C[C@H]1c3c(cc4c(c3Oc3cc5c(cc3OC)CCN(C)[C@@H]5C2)OCO4)CCN1C", "assigned.category": "MET"}
{"compound": "OC(c1cc(C(F)(F)F)nc2c(C(F)(F)F)cccc12)C1CCCCN1 (configuration not stated)", "assigned.category": "NOT MET"}
{"compound": "COc1ccc2cc1Oc1ccc(cc1)C[C@H]1c3cc(c(OC)cc3CCN1C)Oc1c(O)c(OC)cc3c1[C@@H](C2)N(C)CC3", "assigned.category": "NOT MET"}
{"compound": "COc1ccc2cc1Oc1ccc(cc1)C[C@H]1c3cc(c(OC)cc3CCN1C)Oc1c(O)c(OC)cc3c1[C@@H](C2)NCC3", "assigned.category": "NOT MET"}

Ask | Strictly below 20 in selectivity ratio? C=C[C@H]1CN2CC[C@H]1C[C@H]2[C@H](O)c1ccnc2ccc(OC)cc12
Reply | NOT MET

Ask | Is selectivity ratio of COc1ccc2cc1Oc1ccc(cc1)C[C@H]1c3c(cc(OC)c(OC)c3Oc3cc4c(cc3OC)CCN[C@@H]4C2)CCN1C strictly below 20?
Reply | NOT MET

* * *

Test: Selectivity index, ratio of ED50 for human KB-V1 cells to ED50 for chloroquine-resistant Plasmodium falciparum W2
Type: toxicity, cell-based
Conditions: read-out: Ratio ED50
Listed here: items and their measured selectivity ratio.

{"mol": "COc1ccc2cc1Oc1ccc(cc1)C[C@H]1c3c(cc(OC)c4c3Oc3cc5c(cc3O4)CCN=C5C2)CCN1C", "selectivity ratio": 27}
{"mol": "COc1ccc2cc1Oc1ccc(cc1)C[C@H]1c3c(cc(OC)c(O)c3Oc3cc4c(cc3OC)CCN(C)[C@@H]4C2)CCN1C", "selectivity ratio": 11}
{"mol": "COc1ccc2cc1Oc1ccc(cc1)C[C@H]1c3c(cc4c(c3Oc3cc5c(cc3OC)CCN(C)[C@@H]5C2)OCO4)CCN1C", "selectivity ratio": 3}
{"mol": "COc1ccc2cc1Oc1ccc(cc1)C[C@H]1c3c(cc(OC)c4c3Oc3cc5c(cc3O4)CCN(C)[C@@H]5C2)CCN1C", "selectivity ratio": 2}
{"mol": "COc1ccc2cc1Oc1ccc(cc1)C[C@H]1c3c(cc(OC)c(OC)c3Oc3cc4c(cc3OC)CCN[C@@H]4C2)CCN1C", "selectivity ratio": 21}
{"mol": "COc1ccc2cc1Oc1ccc(cc1)C[C@H]1c3cc(c(OC)cc3CCN1C)Oc1c(O)c(OC)cc3c1[C@@H](C2)NCC3", "selectivity ratio": 65}

With those in mind, consider the next compound.
Ask | Identify measured selectivity ratio corresponding to COc1ccc2cc1Oc1ccc(cc1)C[C@H]1c3cc(c(OC)cc3CCN1C)Oc1c(OC)c(OC)cc3c1[C@@H](C2)NCC3
Reply | 62

* * *

Experiment: Selectivity index, ratio of ED50 for human MEL2 cells to ED50 for chloroquine-sensitive Plasmodium falciparum D6
Assay type: toxicity, cell-based
Conditions: read-out: Ratio ED50
Decide using selectivity ratio alone. Strictly below 100: fulfilled. Equal to or above 100: not fulfilled.

Check out these entries, answers already filled in.
{"compound": "COc1ccc2cc1Oc1ccc(cc1)C[C@H]1c3cc(c(OC)cc3CCN1C)Oc1c(OC)c(OC)cc3c1[C@@H](C2)NCC3", "assigned.category": "not fulfilled"}
{"compound": "OC(c1cc(C(F)(F)F)nc2c(C(F)(F)F)cccc12)C1CCCCN1 (centres undefined)", "assigned.category": "not fulfilled"}
{"compound": "COc1ccc2cc1Oc1ccc(cc1)C[C@H]1c3c(cc(OC)c(OC)c3Oc3cc4c(cc3OC)CCN[C@@H]4C2)CCN1C", "assigned.category": "not fulfilled"}
{"compound": "COc1ccc2cc1Oc1ccc(cc1)C[C@H]1c3c(cc(OC)c4c3Oc3cc5c(cc3O4)CCN=C5C2)CCN1C", "assigned.category": "fulfilled"}
{"compound": "COc1ccc2cc1Oc1ccc(cc1)C[C@H]1c3c(cc(OC)c(O)c3Oc3cc4c(cc3OC)CCN[C@@H]4C2)CCN1C", "assigned.category": "not fulfilled"}
{"compound": "COc1ccc2cc1Oc1ccc(cc1)C[C@H]1c3c(cc(OC)c(O)c3Oc3cc4c(cc3OC)CCN(C)[C@@H]4C2)CCN1C", "assigned.category": "fulfilled"}
{"compound": "COc1ccc2cc1Oc1ccc(cc1)C[C@H]1c3c(cc4c(c3Oc3cc5c(cc3OC)CCN[C@@H]5C2)OCO4)CCN1C", "assigned.category": "not fulfilled"}
{"compound": "COc1ccc2cc1Oc1ccc(cc1)C[C@H]1c3cc(c(OC)cc3CCN1C)Oc1c(O)c(OC)cc3c1[C@@H](C2)N(C)CC3", "assigned.category": "not fulfilled"}
{"compound": "COc1ccc2cc1Oc1ccc(cc1)C[C@H]1c3cc(c(OC)cc3CCN1C)Oc1c(OC)c(OC)cc3c1[C@@H](C2)N(C)CC3", "assigned.category": "not fulfilled"}
{"compound": "COc1ccc2cc1Oc1ccc(cc1)C[C@H]1c3cc(c(OC)cc3CCN1C)Oc1c(O)c(OC)cc3c1[C@@H](C2)NCC3", "assigned.category": "not fulfilled"}

Ask | In the record for COc1ccc2cc1Oc1ccc(cc1)C[C@H]1c3c(cc(OC)c4c3Oc3cc5c(cc3O4)CCN(C)[C@@H]5C2)CCN1C , is selectivity ratio less than 100?
Reply | fulfilled

Ask | Threshold test, selectivity ratio < 100: C=C[C@H]1CN2CC[C@H]1C[C@H]2[C@H](O)c1ccnc2ccc(OC)cc12
Reply | not fulfilled

Ask | Given the entry COc1ccc2cc1Oc1ccc(cc1)C[C@H]1c3c(cc(OC)c(OC)c3Oc3cc4c(cc3OC)CCN(C)[C@@H]4C2)CCN1C , would its reported selectivity ratio be below 100?
Reply | fulfilled

Source: ChEMBL document CHEMBL1147331
